Values were extracted from patent EP4729546A1.

# Assayed system: huFXII-his (human) (UniProt P00748)
# Sequence (P00748 20-615, form in doubt): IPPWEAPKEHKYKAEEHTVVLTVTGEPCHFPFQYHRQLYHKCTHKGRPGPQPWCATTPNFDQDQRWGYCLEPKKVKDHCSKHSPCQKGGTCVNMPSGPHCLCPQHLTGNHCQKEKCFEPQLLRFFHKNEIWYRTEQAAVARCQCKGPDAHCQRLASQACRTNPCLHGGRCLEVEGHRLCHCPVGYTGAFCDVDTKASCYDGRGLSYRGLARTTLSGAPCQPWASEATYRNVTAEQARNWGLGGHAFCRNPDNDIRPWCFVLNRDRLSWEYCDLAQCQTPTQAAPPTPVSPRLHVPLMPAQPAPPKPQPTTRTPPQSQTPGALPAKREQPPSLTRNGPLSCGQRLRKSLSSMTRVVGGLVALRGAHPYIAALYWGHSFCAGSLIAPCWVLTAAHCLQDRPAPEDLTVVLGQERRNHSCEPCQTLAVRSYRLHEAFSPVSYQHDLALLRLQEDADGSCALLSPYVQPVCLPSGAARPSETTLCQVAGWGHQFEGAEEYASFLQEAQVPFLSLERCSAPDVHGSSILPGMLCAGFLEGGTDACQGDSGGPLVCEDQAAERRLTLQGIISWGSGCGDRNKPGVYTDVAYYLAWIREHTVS
# Protocol text: cell-based or functional assay
Please go through the items and note down their IC50 of inhibition of cleavage of chemical substrate S2302 by FXIIa (OD405).

Output IC50 of inhibition of cleavage of chemical substrate S2302 by FXIIa (OD405) of FX-Y17-Y12 (antibody, V domains shown) VH: EVQLLESGGGLVQPGGSLRLSCAGSGFSFGSQTMSWVRQAPGKGLEWVSSISVISGRTYYADSVKGRFTISRDNSKNTLYLQMNSLRAEDTAVYYCTKWHAFDVWGQGTMVTVSS VL: EIVLTQSPATLSVSPGERATLSCRASQSLYSHLAWYQQKPGQAPRLLIYGASTRATGIPARFSGSGSGTEFTLTISSLQSEDFAVYYCQQYKKWPLSFGGGTKVEIK
0.0296 µg/mL

Give the value of IC50 of inhibition of cleavage of chemical substrate S2302 by FXIIa (OD405) reported for the following: FX-Y17-Y14 (antibody, V domains shown) VH: EVQLLESGGGLVQPGGSLRLSCAGSGFSFGSQTMSWVRQAPGKGLEWVSSISHISGRTYYADSVKGRFTISRDNSKNTLYLQMNSLRAEDTAVYYCTKSHRFDVWGQGTMVTVSS VL: EIVLTQSPATLSVSPGERATLSCRASQSVYSALAWYQQKPGQAPRLLIYGASTRATGIPARFSGSGSGTEFTLTISSLQSEDFAVYYCQQNNKWPLSFGGGTKVEIK
0.0138 µg/mL

Fill in IC50 of inhibition of cleavage of chemical substrate S2302 by FXIIa (OD405) for record FX-Y17-Y20 (antibody, V domains shown) VH: EVQLLESGGGLVQPGGSLRLSCAGSGFSFGSQTMSWVRQAPGKGLEWVSSISVISGRSYYADSVKGRFTISRDNSKNTLYLQMNSLRAEDTAVYYCTKSHAFDVWGQGTMVTVSS VL: EIVLTQSPATLSVSPGERATLSCRASQSVYSALAWYQQKPGQAPRLLIYGASTRATGIPARFSGSGSGTEFTLTISSLQSEDFAVYYCQQYHKWPLSFGGGTKVEIK
0.0187 µg/mL
